Molecular target: human PF4 (Homo sapiens)
Construct: PF4 is a 70 amino acid, lysine-rich 7.8 kDa platelet-specific protein; made in house; host or cells: Escherichia coli BL21DE3 pLysS (pT7-7) and/or Drosophila S2 cells
Assay: Inhibition of PF4 tetramer formation (BS3 cross-linking, SDS-PAGE)
Assay type: biochemical
Conditions: 1 μM inhibitor; read-out: % inhibition of PF4 tetramer formation at single concentration of inhibitor
Please provide measured inhibition at 1 µM for the entries that follow.

CC(C)(C)OC(=O)N1CC[C@@H](C(=O)C2C(=O)c3ccc(C(=O)c4ccc5c(c4)C(=O)C(C(=O)[C@@H]4CCN(C(=O)OC(C)(C)C)C4)C5=O)cc3C2=O)C1 (stereo partly drawn) [Example 375] ... 14%

# return inhibition at 1 µM for each item in the list
1. O=C(NC1CCS(=O)(=O)C1)C1C(=O)c2ccc(Oc3ccc4c(c3)C(=O)C(C(=O)NC3CCS(=O)(=O)C3)C4=O)cc2C1=O (stereo not drawn) [Example 366]
2. COCCOCCN(CC(=O)C1C(=O)c2ccc(C(=O)c3ccc4c(c3)C(=O)C(C(=O)CN(CCOCCOC)C(=O)OC(C)(C)C)C4=O)cc2C1=O)C(=O)OC(C)(C)C (stereo not drawn) [Example 391]

OUTPUT:
1: 41%; 2: 1%

---

Biological target: human PF4 (Homo sapiens, UniProt P02776)
Construct: PF4 is a 70 amino acid, lysine-rich 7.8 kDa platelet-specific protein; made in house; host or cells: Escherichia coli BL21DE3 pLysS (pT7-7) and/or Drosophila S2 cells
Sequence (P02776 32-101): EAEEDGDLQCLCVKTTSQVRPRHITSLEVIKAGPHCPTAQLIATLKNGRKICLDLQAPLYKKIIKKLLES
Experiment: Inhibition of PF4 tetramer formation (BS3 cross-linking, SDS-PAGE)
Format: biochemical
Details: 10 μM inhibitor (column A); read-out: % inhibition of PF4 tetramer formation at single concentration of inhibitor
ENDPOINT: inhibition at 10 µM (%)
One number for each entry, in %.

CSCCCC(=O)C1C(=O)c2ccc(C(=O)c3ccc4c(c3)C(=O)C(C(=O)CCCSC)C4=O)cc2C1=O (stereo not drawn) ... 81
CC(C)(C)OC(=O)N[C@@H](Cc1ccccc1)C(=O)C1C(=O)c2ccc(C(=O)c3ccc4c(c3)C(=O)C(C(=O)[C@H](Cc3ccccc3)NC(=O)OC(C)(C)C)C4=O)cc2C1=O (stereo partly drawn) ... 100

INPUT: Given the entry CC(C)(C)OC(=O)NCC(=O)C1C(=O)c2ccc(C(=O)c3ccc4c(c3)C(=O)C(C(=O)CNC(=O)OC(C)(C)C)C4=O)cc2C1=O (stereo not drawn) , report its measured inhibition at 10 µM.
OUTPUT: 97

---

Molecular target: human PF4 (Homo sapiens, UniProt P02776)
Construct: PF4 is a 70 amino acid, lysine-rich 7.8 kDa platelet-specific protein; made in house; host or cells: Escherichia coli BL21DE3 pLysS (pT7-7) and/or Drosophila S2 cells
Test: Inhibition of PF4 tetramer formation (BS3 cross-linking, SDS-PAGE)
Assay type: biochemical
Settings: 1 μM inhibitor; read-out: % inhibition of PF4 tetramer formation at single concentration of inhibitor
Lab note: compare inhibition at 1 µM against 20%. Equal or greater, write Y. Smaller, write N.

These recorded examples may help you get a feel for the data.
CC(C)(C)OC(=O)NCCCC(=O)C1C(=O)c2ccc(Oc3ccc4c(c3)C(=O)C(C(=O)CCCNC(=O)OC(C)(C)C)C4=O)cc2C1=O (centres unmarked) ... Y
O=C(c1ccc2c(c1)C(=O)C(C(=O)CSc1ccncc1)C2=O)c1ccc2c(c1)C(=O)C(C(=O)CSc1ccncc1)C2=O (centres unmarked) ... Y
CC[C@H](C)[C@H](NC(=O)OC(C)(C)C)C(=O)C1C(=O)c2ccc(S(=O)(=O)c3ccc4c(c3)C(=O)C(C(=O)[C@@H](NC(=O)OC(C)(C)C)[C@@H](C)CC)C4=O)cc2C1=O (some centres unmarked) ... Y

INPUT: In plain terms: is recorded inhibition at 1 µM at least 20% for CC(=O)OC[C@H]1O[C@@H](OC(C)=O)[C@H](NC(=O)C2C(=O)c3ccc(C(=O)c4ccc5c(c4)C(=O)C(C(=O)N[C@H]4[C@H](OC(C)=O)O[C@H](COC(C)=O)[C@@H](OC(C)=O)[C@@H]4OC(C)=O)C5=O)cc3C2=O)[C@@H](OC(C)=O)[C@@H]1OC(C)=O (some centres unmarked) ?
OUTPUT: N

INPUT: Please tell me: is the compound O=C(c1ccc2c(c1)C(=O)C(Br)C2=O)c1ccc2c(c1)C(=O)C(Br)C2=O (centres unmarked) at or over 20% in terms of inhibition at 1 µM?
OUTPUT: Y

---

Would you mind telling me the reported inhibition at 1 µM of each entry?
Molecular target: human PF4 (Homo sapiens, UniProt P02776)
Construct: PF4 is a 70 amino acid, lysine-rich 7.8 kDa platelet-specific protein; made in house; host or cells: Escherichia coli BL21DE3 pLysS (pT7-7) and/or Drosophila S2 cells
Experiment: Inhibition of PF4 tetramer formation (BS3 cross-linking, SDS-PAGE)
Type: biochemical
Conditions: 1 μM inhibitor; read-out: % inhibition of PF4 tetramer formation at single concentration of inhibitor

Example entries and their recorded answers appear below.
CC(C)C[C@@H](N)C(=O)C1C(=O)c2ccc(S(=O)(=O)c3ccc4c(c3)C(=O)C(C(=O)[C@H](N)CC(C)C)C4=O)cc2C1=O (stereo partly drawn) ... 23%
O=C(c1ccc2c(c1)C(=O)C(C(=O)C1CC1)C2=O)c1ccc2c(c1)C(=O)C(C(=O)C1CC1)C2=O (stereo not drawn) ... 22%
O=C1c2ccc(S(=O)(=O)c3ccc4c(c3)C(=O)C(C(=O)C3CC3)C4=O)cc2C(=O)C1C(=O)C1CC1 (stereo not drawn) ... 24%
Cc1ccccc1C(=O)CCC(=O)C1C(=O)c2ccc(C(=O)c3ccc4c(c3)C(=O)C(C(=O)CCC(=O)c3ccccc3C)C4=O)cc2C1=O (stereo not drawn) ... 14%
CC(C)C[C@@H](N)C(=O)C1C(=O)c2ccc(C(=O)c3ccc4c(c3)C(=O)C(C(=O)[C@H](N)CC(C)C)C4=O)cc2C1=O (stereo partly drawn) ... 26%

Shifting focus to the molecule that follows.
INPUT: Give inhibition at 1 µM (human PF4 (Homo sapiens, UniProt P02776)) of the following molecule: O=C(c1ccc2c(c1)C(=O)C(C(=O)C1CCC1)C2=O)c1ccc2c(c1)C(=O)C(C(=O)C1CCC1)C2=O (stereo not drawn)
OUTPUT: 32%

---

Molecular target: human PF4 (Homo sapiens)
Construct: PF4 is a 70 amino acid, lysine-rich 7.8 kDa platelet-specific protein; made in house; host or cells: Escherichia coli BL21DE3 pLysS (pT7-7) and/or Drosophila S2 cells
Test: Inhibition of PF4 tetramer formation (BS3 cross-linking, SDS-PAGE)
Format: biochemical
Conditions: 1 μM inhibitor; read-out: % inhibition of PF4 tetramer formation at single concentration of inhibitor
ENDPOINT: inhibition at 1 µM (%)
One number for each entry, in %.

Completed entries (count: 6):
O=C(CSc1ccncc1)C1C(=O)c2ccc(S(=O)(=O)c3ccc4c(c3)C(=O)C(C(=O)CSc3ccncc3)C4=O)cc2C1=O (stereo not shown) [Example 290] ... 39
COCCOCC(=O)C1C(=O)c2ccc(Oc3ccc4c(c3)C(=O)C(C(=O)COCCOC)C4=O)cc2C1=O (stereo not shown) [Example 396] ... 14
CO[C@@H](C)C(=O)C1C(=O)c2ccc(C(=O)c3ccc4c(c3)C(=O)C(C(=O)[C@H](C)OC)C4=O)cc2C1=O (stereo partly shown) [Example 236] ... 20
CC(C)(C)OCC(=O)C1C(=O)c2ccc(C(=O)c3ccc4c(c3)C(=O)C(C(=O)COC(C)(C)C)C4=O)cc2C1=O (stereo not shown) [Example 235] ... 11
CSCC[C@H](NC(=O)OC(C)(C)C)C(=O)C1C(=O)c2ccc(C(=O)c3ccc4c(c3)C(=O)C(C(=O)[C@H](CCSC)NC(=O)OC(C)(C)C)C4=O)cc2C1=O (stereo partly shown) [Example 271] ... 21
CCCC(=O)C1C(=O)c2ccc(Oc3ccc4c(c3)C(=O)C(C(=O)CCC)C4=O)cc2C1=O (stereo not shown) [Example 321] ... 17

Shifting focus to the molecule that follows.
INPUT: # input molecule: CO[C@@H](C)C(=O)C1C(=O)c2ccc(Oc3ccc4c(c3)C(=O)C(C(=O)[C@H](C)OC)C4=O)cc2C1=O (stereo partly shown) [Example 248] ; wanted: its inhibition at 1 µM
OUTPUT: 26

---

Target: human PF4 (Homo sapiens, UniProt P02776)
Construct: PF4 is a 70 amino acid, lysine-rich 7.8 kDa platelet-specific protein; made in house; host or cells: Escherichia coli BL21DE3 pLysS (pT7-7) and/or Drosophila S2 cells
Assay: Inhibition of PF4 tetramer formation (BS3 cross-linking, SDS-PAGE)
Format: biochemical
Details: 1 μM inhibitor; read-out: % inhibition of PF4 tetramer formation at single concentration of inhibitor
Please provide measured inhibition at 1 µM for the entries that follow.
Give bare numbers, in %.

Example entries and their recorded answers appear below.
O=C(c1ccnc(-c2ccccc2)c1)C1C(=O)c2ccc(S(=O)(=O)c3ccc4c(c3)C(=O)C(C(=O)c3ccnc(-c5ccccc5)c3)C4=O)cc2C1=O (stereo not drawn) ... 14
O=C(O)CNC(=O)C1C(=O)c2ccc(C(=O)c3ccc4c(c3)C(=O)C(C(=O)NCC(=O)O)C4=O)cc2C1=O (stereo not drawn) ... 20

Now consider the entry below.
INPUT: For CC(C)(C)OC(=O)NCCC(=O)C1C(=O)c2ccc(C(=O)c3ccc4c(c3)C(=O)C(C(=O)CCNC(=O)OC(C)(C)C)C4=O)cc2C1=O (stereo not drawn) , what is its reported inhibition at 1 µM?
OUTPUT: 7
